All values here come from paper PMC4278257.

# Lookup of reported IC50 keyed by entry
# target.or.system: UniProt:A1Z1R1
# experimental.protocol: Fluorescence competitive binding assay with 1-NPN, recombinant SlitOBP1
value.type: IC50 (µM)

>  <structure>
CC(C)(C)OC(=O)C[C@H](NC(=O)OCc1ccccc1)C(=O)O

>  <obs.value>
6.7

$$$$
>  <structure>
O=C(O)C(F)(F)C(F)(F)C(F)(F)C(F)(F)C(F)(F)C(F)(F)C(F)(F)C(F)(F)Cl

>  <obs.value>
6

$$$$

* * *

# target.or.system: SlitOBP1 Phe12 (phenylalanine to alanine) (Spodoptera litura, UniProt A1Z1R1, F31A)
# Sequence (A1Z1R1 20-164 F31A): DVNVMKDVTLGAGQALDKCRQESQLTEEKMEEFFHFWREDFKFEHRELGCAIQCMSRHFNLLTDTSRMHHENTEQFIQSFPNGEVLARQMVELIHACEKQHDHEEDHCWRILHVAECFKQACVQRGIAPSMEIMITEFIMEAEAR
# experimental.protocol: Fluorescence binding assay with 1-NPN, mutant SlitOBP1 Phe12

>  <molecule>
c1ccc(Nc2cccc3ccccc23)cc1 [1-NPN, N-phenyl-1-naphthylamine, reference compound]

>  <target.or.system>
SlitOBP1 Phe12 (phenylalanine to alanine) (Spodoptera litura, UniProt A1Z1R1, F31A)

>  <unit.label>
µM

>  <Kd>
6.78

$$$$

* * *

# Lookup of reported pIC50 keyed by entry
# target.or.system: SlitOBP1 (Spodoptera litura, UniProt A1Z1R1)
# Sequence (A1Z1R1 20-164): as the sequence (A1Z1R1 20-164 F31A) above, with A12F counted along it
# experimental.protocol: Fluorescence competitive binding assay with 1-NPN, recombinant SlitOBP1
# measurement.context: 2 μM SlitOBP1, 2 μM 1-NPN, ligand 0-20 μM; unit inferred
pIC50: −log10 of the molar value.

>  <molecule>
NC(=O)[C@@H]1CCCN1C(=O)[C@H](Cc1cnc[nH]1)NC(=O)[C@@H]1CCC(=O)N1

>  <pIC50>
5.14

$$$$
>  <molecule>
OCC(F)(F)C(F)(F)C(F)(F)C(F)(F)C(F)(F)C(F)(F)C(F)(F)C(F)(F)CO [754-96-1, 1H,1H,10H,10H-perfluoro-1,10-decanediol]

>  <pIC50>
5.18

$$$$
>  <molecule>
NCC(=O)NC(Cc1ccc(O)cc1)C(=O)NCC(=O)O (centres unmarked)

>  <pIC50>
5.21

$$$$
>  <molecule>
O=C(O)C(F)(F)C(F)(F)C(F)(F)C(F)(F)C(F)(F)C(F)(F)C(F)(F)C(F)(F)F

>  <pIC50>
5.22

$$$$
>  <molecule>
C[C@]12C=CC(=O)C=C1CC[C@@H]1[C@@H]2[C@@H](O)C[C@@]2(C)[C@H]1CC[C@]2(O)C(=O)CO [50-24-8, reference compound]

>  <pIC50>
5.30

$$$$
>  <molecule>
CC(=O)[C@@]12O[C@@H]1C[C@H]1[C@@H]3CC=C4C[C@@H](O)CC[C@]4(C)[C@H]3CC[C@@]12C

>  <pIC50>
5.08

$$$$
>  <molecule>
CC(=O)[C@H]1CC[C@H]2[C@@H]3CC=C4C[C@@H](O)CC[C@]4(C)[C@H]3CC[C@]12C

>  <pIC50>
4.83

$$$$
>  <molecule>
C[C@]12C=CC(=O)C=C1CC[C@@H]1[C@@H]2C(=O)C[C@@]2(C)[C@H]1CC[C@]2(O)C(=O)CO [53-03-2, 1,2-Dehydrocortisone, reference compound]

>  <pIC50>
5.30

$$$$
